Reported composite z-score by item:
Target: Torsin-1A-interacting protein 1 (Homo sapiens) (UniProt Q5JTV8)
Sequence (Q5JTV8 whole entry, looked up): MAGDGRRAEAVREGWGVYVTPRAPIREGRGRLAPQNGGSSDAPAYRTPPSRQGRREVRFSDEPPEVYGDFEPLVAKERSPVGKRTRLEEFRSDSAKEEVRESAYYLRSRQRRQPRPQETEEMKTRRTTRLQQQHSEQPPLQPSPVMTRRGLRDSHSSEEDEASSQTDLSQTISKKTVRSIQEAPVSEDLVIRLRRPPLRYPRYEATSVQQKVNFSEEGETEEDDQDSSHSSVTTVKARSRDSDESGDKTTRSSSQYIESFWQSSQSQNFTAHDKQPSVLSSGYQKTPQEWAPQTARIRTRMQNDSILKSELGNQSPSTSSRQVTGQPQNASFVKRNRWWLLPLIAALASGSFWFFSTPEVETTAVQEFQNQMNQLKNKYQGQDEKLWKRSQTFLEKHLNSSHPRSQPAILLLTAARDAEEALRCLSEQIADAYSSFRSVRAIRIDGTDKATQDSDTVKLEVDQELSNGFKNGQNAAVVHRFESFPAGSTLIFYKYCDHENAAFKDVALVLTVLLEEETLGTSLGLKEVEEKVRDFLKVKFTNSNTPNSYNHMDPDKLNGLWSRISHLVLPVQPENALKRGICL
Test: compound microarray binding of lysate hLAP1 – cell lysate, small-molecule microarray, COS7 lysate, 635/667 nm fluorescence, primary screen (AID 1116)
Conditions: 635 nm fluorescence, higher = more signal

# compound, test target, composite z-score
rows = [
    ("CCCCNC(=O)c1ccc(C#CC(C)(C)C)c(OC(C)=O)c1", "Torsin-1A-interacting protein 1 (Homo sapiens) (UniProt Q5JTV8)", 0.5),
    ("CCOC(=O)C[C@H]1[C@H](OC(=O)Cc2ccc3c(c2)OCO3)[C@@H](NC(=O)c2ccc3ccccc3n2)c2cc(OCCCO)ccc2N1C(=O)c1ccc2ccccc2n1", "Torsin-1A-interacting protein 1 (Homo sapiens) (UniProt Q5JTV8)", 0.0995),
    ("COc1cc2c(cc1O)C(C1CC1)N(Cc1cccc(OC(F)(F)F)c1)CC2 (stereo not drawn)", "Torsin-1A-interacting protein 1 (Homo sapiens) (UniProt Q5JTV8)", 0.108),
    ("CCOC(=O)C[C@H]1[C@H](OC(=O)c2cc3ccccc3oc2=O)[C@@H](NC(=O)c2ccccc2)c2cc(OCCCO)ccc2N1C(=O)c1ccccc1", "Torsin-1A-interacting protein 1 (Homo sapiens) (UniProt Q5JTV8)", 0.203),
    ("CC(C)N1C(=O)C[C@@](C(=O)O)(c2ccc([N+](=O)[O-])cc2)[C@H]1c1ccc(CO)cc1", "Torsin-1A-interacting protein 1 (Homo sapiens) (UniProt Q5JTV8)", 0.335),
    ("NCCCCCCNC(=O)[C@@H]1C[C@@H]2C(=O)N[C@@H](CCCCN)C(=O)N2[C@@H]1c1ccc(O)cc1", "Torsin-1A-interacting protein 1 (Homo sapiens) (UniProt Q5JTV8)", 1.66),
    ("CCOC(=O)[C@@H]1CCCCN1C(=O)C(=O)OC", "Torsin-1A-interacting protein 1 (Homo sapiens) (UniProt Q5JTV8)", -0.274),
    ("CC1=C2[C@@H](CCc3ccccc3)OB(O)C[C@@H]2[C@@H]2C(=O)N(C)C(=O)[C@@H]2C1", "Torsin-1A-interacting protein 1 (Homo sapiens) (UniProt Q5JTV8)", 0.284),
]
